Reference source for all entries: PubChem BioAssay (NCI)

Tested on: OVCAR-3 ovarian
PROTOCOL_DETAILS: NCI tumour cell line growth inhibition, 48 h
Attribute: TGI

Reference set (5 entries):
MOLECULE	ENDPOINT	RESULT
Cc1nc(N)nc(N)c1N1CCN(Cc2ccccc2)CC1	TGI	> 100 µM
COc1cc(C2C3=C(N=C4SC(C(C)=O)=C(C)N42)c2ccccc2CC3)cc(OC)c1OC (stereo unspecified)	TGI	> 100 µM
CCOC(=O)/C=C1/Nc2cc(F)c(F)cc2NC1=O	TGI	> 100 µM
CN(C)/C=N/S(=O)(=O)c1nn2c(C=O)c(-c3cc4ccccc4oc3=O)nc2s1	TGI	17.3 µM
CC(C)(Oc1ccc(C(=O)c2ccc(Cl)cc2)cc1Cl)C(=O)N1CCN(c2ccccc2)CC1	TGI	> 100 µM

## Task May I ask what TGI has been recorded for O=Cc1cc(O)c(O)c(/C=N/n2c3ccccc3c3ccccc32)c1 ?
## Result 10.1 µM

====

Tested on: SK-OV-3 ovarian
PROTOCOL_DETAILS: NCI tumour cell line growth inhibition, 48 h
ENDPOINT: TGI

// below: answered compounds
COMPOUND	TGI
COc1cc(C2C3=C(N=C4SC(C(C)=O)=C(C)N42)c2ccccc2CC3)cc(OC)c1OC (configuration not stated)	> 100 µM
CC(C)C(/C=C/c1ccccc1)=N\NC(=S)NN	> 100 µM
COC(=O)[C@H](Cc1ccccc1)NC(=O)[C@@H](OC)[C@@H]1Cc2cc3cc(OC4CC(OC5CC(O)C(O)C(C)O5)C(O)C(C)O4)c(C)c(O)c3c(O)c2C(=O)[C@H]1OC1CC(OC2CC(OC3CC(C)(O)C(O)C(C)O3)C(O)C(C)O2)C(O)C(C)O1 (some centres not stated)	> 14.3 µM

## Task Give its TGI value. Item: Oc1ccccc1C=Nc1ccccc1N=Cc1ccccc1O
## Result > 100 µM

## Task Which TGI is listed for O=C1OC(C(O)C(O)C(O)CO)C(O)C1O (configuration not stated) ?
## Result > 100 µM

## Task I would be grateful if you could share the reported TGI for C=C(COC(=O)C(C)C)[C@H]1Oc2ccc(C(C)=O)cc2[C@@H]1OC(=O)C(C)C .
## Result > 100 µM

## Task Could you tell me which TGI is on file for Oc1ccc(-c2nc3ccc4[nH]ncc4c3c3c2CCCC3)c2cccnc12 ?
## Result 2.26 µM

## Task Entry CCCN(CCC)c1c([N+](=O)[O-])cc(C(=O)N(C)C)cc1[N+](=O)[O-] : reported TGI = ?
## Result > 100 µM

## Task I have this compound here, O=C1c2ccccc2C2(O)Oc3cccc(O)c3C12O (configuration not stated) , and I need its recorded TGI.
## Result > 100 µM

## Task What value of TGI has been reported for the following compound? CC(=O)N1C(OCc2ccccc2)CCN1c1ccccc1 (configuration not stated)
## Result > 10 µM

## Task What measured TGI goes with Cc1cccc(N2C(=O)C(=O)C(c3nc4ccccc4s3)C(=O)C2=O)c1C ?
## Result > 100 µM

## Task Recorded TGI for O=C1C(=O)c2c(nc3ncccn23)-c2ccccc21 , please?
## Result 2.52 µM

====

System: MDA-N
PROTOCOL_DETAILS: NCI tumour cell line growth inhibition, 48 h
Measured TGI values are reported for all entries that follow.

MOLECULE	TGI
O=C1CC(Cl)c2c(Cl)sc(Cl)c21 (centres undefined)	5.94 µM

## Task Can you share its TGI? I mean this molecule: CCOC(=O)/C=C1/Nc2cc(F)c(F)cc2NC1=O
## Result > 100 µM

## Task Given CC(C)C(/C=C/c1ccccc1)=N\NC(=S)NN , state its recorded TGI.
## Result > 31.6 µM

## Task Suppose we examine the molecule Cc1csc2n(C)c(=O)c3ccccc3[n+]12 ; what TGI value has been reported?
## Result > 100 µM
